MEASUREMENT TARGET: Platelet-derived growth factor receptor alpha (Homo sapiens, UniProt P16234, D842V)
TEST NAME: Inhibition of PDGFRalpha D842V mutant (unknown origin)

[
  {
    "MOL SMILES": "C[C@](N)(c1ccc(F)cc1)c1cnc(N2CCN(c3ncnn4cc(-c5cnn(CC6COC6)c5)cc34)CC2)nc1",
    "IC50": "< 4.5 nM"
  }
]

---

MEASUREMENT TARGET: Leucine-rich repeat serine/threonine-protein kinase 2 (Homo sapiens, UniProt Q5S007)
Sequence (Q5S007 whole entry): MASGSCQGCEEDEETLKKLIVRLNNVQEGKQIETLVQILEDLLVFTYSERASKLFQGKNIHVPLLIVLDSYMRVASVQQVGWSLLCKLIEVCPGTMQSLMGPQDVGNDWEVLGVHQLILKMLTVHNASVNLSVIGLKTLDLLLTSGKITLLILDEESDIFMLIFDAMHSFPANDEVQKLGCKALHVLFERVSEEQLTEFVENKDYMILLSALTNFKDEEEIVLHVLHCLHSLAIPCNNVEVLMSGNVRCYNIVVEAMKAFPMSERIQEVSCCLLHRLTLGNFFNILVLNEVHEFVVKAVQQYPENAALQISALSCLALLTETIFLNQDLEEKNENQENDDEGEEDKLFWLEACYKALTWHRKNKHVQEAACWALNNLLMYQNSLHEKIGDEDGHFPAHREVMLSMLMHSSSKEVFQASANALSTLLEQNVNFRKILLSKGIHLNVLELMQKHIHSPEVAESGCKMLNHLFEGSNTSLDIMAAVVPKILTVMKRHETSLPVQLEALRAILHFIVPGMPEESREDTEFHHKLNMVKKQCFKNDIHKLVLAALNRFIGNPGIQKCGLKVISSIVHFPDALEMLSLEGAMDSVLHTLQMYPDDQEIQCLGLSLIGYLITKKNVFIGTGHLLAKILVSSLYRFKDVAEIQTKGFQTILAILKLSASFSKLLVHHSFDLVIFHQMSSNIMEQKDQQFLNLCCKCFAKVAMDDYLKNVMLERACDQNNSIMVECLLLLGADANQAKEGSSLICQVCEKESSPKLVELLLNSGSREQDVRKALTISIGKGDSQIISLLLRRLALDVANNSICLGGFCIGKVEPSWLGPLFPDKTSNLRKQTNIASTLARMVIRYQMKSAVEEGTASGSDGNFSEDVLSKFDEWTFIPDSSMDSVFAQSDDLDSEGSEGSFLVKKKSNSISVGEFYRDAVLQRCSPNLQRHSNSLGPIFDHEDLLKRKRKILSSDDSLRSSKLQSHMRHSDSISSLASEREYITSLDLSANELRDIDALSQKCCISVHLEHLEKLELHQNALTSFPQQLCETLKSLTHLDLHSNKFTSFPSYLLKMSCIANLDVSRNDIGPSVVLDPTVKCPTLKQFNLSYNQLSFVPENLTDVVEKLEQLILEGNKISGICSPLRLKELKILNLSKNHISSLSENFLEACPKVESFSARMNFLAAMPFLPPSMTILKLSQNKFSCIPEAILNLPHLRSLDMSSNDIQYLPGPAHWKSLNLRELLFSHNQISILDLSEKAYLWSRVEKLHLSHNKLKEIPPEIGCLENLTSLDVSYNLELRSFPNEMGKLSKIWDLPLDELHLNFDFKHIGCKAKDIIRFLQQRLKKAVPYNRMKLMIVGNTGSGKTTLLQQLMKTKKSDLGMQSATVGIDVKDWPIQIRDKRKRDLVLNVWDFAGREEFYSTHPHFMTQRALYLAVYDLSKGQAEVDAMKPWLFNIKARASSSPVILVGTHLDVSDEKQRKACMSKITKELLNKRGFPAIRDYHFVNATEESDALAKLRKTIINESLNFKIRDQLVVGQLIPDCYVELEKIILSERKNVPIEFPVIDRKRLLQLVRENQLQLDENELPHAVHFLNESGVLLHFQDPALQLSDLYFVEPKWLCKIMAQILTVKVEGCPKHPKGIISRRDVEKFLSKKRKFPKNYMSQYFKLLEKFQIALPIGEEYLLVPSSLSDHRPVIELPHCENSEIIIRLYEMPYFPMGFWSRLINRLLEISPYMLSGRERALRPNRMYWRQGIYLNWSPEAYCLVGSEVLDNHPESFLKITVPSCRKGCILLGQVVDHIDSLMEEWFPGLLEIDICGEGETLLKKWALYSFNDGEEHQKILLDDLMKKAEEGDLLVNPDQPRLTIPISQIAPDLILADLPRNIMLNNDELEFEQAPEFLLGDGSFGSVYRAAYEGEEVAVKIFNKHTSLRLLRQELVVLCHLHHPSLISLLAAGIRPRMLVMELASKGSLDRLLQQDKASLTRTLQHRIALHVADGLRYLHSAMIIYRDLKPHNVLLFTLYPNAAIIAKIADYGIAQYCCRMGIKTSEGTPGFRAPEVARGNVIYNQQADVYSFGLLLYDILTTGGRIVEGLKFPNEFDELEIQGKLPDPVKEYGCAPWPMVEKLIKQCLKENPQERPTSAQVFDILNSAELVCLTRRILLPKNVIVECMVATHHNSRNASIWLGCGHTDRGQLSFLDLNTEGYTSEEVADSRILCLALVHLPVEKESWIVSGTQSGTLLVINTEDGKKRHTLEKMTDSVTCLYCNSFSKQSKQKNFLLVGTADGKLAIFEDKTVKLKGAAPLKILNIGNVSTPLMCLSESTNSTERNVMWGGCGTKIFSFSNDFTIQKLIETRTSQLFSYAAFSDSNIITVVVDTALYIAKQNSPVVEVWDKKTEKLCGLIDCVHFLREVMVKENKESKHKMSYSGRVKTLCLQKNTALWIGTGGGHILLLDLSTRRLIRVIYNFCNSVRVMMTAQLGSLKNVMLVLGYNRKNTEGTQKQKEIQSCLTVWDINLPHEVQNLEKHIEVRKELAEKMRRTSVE
TEST NAME: Inhibition of LRRK2 (unknown origin)
pIC50: −log10 of the molar value.

[
  {
    "MOL SMILES": "CC(C)(C)Cn1cc(Nc2ncc3c(Cl)c(N4CCN(C5(C)COC5)CC4)ccc3n2)cn1",
    "pIC50": 8.01
  }
]

---

MEASUREMENT TARGET: Leucine-rich repeat serine/threonine-protein kinase 2 (Homo sapiens)
TEST NAME: Inhibition of LRRK2 in human PBMCs assessed as reduction in […] phosphorylation
pIC50: −log10 of the molar value.

[
  {
    "MOL SMILES": "O=C1NCCCOc2ccc3[nH]nc(c3c2)-c2cc(cc(N3CCC4(COC4)C3)c2)CO1",
    "pIC50": "> 8.00"
  }
]

---

MEASUREMENT TARGET: Histone-lysine N-methyltransferase EZH2 (Homo sapiens, UniProt Q15910)
Sequence (Q15910 whole entry): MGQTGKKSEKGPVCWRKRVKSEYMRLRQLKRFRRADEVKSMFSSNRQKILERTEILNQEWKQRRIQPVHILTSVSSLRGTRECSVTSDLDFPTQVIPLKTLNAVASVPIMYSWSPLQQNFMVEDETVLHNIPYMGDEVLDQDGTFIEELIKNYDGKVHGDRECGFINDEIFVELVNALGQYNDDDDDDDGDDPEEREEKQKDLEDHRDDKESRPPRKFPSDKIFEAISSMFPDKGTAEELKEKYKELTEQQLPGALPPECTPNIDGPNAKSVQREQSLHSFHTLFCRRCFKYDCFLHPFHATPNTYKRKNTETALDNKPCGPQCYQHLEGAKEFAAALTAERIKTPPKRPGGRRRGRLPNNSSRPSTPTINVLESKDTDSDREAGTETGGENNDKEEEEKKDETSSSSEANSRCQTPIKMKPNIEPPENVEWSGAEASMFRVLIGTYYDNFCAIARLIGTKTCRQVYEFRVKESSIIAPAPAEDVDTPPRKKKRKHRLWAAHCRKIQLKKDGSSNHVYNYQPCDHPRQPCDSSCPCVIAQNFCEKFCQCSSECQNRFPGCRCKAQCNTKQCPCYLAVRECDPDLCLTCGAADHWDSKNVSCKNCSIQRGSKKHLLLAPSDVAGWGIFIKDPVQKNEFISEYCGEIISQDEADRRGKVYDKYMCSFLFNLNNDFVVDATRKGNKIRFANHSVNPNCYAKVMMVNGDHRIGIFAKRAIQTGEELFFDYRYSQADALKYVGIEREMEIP
READOUT LABEL: IC50

[
  {
    "MOL SMILES": "Cc1ccc2ccc(N[C@H]3CC[C@H](CNc4ncc(C(F)(F)C(=O)NC5COC5)cn4)CC3)nc2c1Cl",
    "READOUT LABEL": "IC50",
    "RESULT": "< 10 nM"
  }
]

---

TEST NAME: Aqueous solubility of compound at pH 2
Format: physicochemical

[
  {
    "COMPOUND": "Nc1cncc(-c2cn3ccnc3c(Nc3ccc(N4CCN(C5COC5)CC4)cc3)n2)n1 [LANRAPLENIB]",
    "solubility": "> 100 µM"
  }
]

---

TEST NAME: Metabolic stability in human liver microsomes assessed as intrinsic clearance
Format: ADME, Microsome
Measured CLH, listed per entry.

[
  {
    "COMPOUND": "c1cn2cc(-c3ccc4cn[nH]c4c3)nc(Nc3ccc(N4CCOCC4)cc3)c2n1 [ENTOSPLETINIB]",
    "QUALIFYING SIGN": "=",
    "CLH / L/h/kg": 0.31
  },
  {
    "COMPOUND": "Nc1cncc(-c2cn3ccnc3c(Nc3ccc(N4CCN(C5COC5)CC4)cc3)n2)n1 [LANRAPLENIB]",
    "QUALIFYING SIGN": "<",
    "CLH / L/h/kg": 0.11
  }
]

---

MEASUREMENT TARGET: Mast/stem cell growth factor receptor Kit (Homo sapiens, UniProt P10721, D816V)
Sequence (P10721 26-976 D816V limits assumed): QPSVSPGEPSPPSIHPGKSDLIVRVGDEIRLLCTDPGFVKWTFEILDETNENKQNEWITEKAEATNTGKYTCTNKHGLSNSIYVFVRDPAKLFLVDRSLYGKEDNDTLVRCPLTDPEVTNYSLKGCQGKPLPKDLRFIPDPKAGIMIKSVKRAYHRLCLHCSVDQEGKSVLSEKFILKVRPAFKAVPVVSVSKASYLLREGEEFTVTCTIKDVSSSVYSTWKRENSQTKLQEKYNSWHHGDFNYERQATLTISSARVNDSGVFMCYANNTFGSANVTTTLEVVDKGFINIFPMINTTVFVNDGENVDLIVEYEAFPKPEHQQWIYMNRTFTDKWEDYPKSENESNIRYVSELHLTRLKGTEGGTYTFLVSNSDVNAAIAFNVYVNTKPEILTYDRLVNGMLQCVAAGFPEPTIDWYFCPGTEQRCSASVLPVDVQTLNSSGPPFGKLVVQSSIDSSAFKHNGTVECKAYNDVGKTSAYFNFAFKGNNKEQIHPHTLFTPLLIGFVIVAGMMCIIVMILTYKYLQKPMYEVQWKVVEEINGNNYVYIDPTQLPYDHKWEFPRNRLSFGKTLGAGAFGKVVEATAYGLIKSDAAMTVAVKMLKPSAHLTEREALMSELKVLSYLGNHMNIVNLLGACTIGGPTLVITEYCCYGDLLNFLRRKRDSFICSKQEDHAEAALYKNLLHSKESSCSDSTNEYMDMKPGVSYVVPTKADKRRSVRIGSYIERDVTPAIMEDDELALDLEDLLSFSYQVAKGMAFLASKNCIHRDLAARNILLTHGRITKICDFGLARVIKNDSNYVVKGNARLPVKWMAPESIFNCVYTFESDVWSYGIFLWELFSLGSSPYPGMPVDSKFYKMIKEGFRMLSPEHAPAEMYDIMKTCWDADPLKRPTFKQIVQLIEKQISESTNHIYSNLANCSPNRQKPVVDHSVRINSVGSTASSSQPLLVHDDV
TEST NAME: Inhibition of KIT D816V mutant (unknown origin)
pIC50: −log10 of the molar value.
READOUT LABEL: pIC50

[
  {
    "MOL SMILES": "C[C@](N)(c1ccc(F)cc1)c1cnc(N2CCN(c3ncnn4cc(-c5cnn(CC6COC6)c5)cc34)CC2)nc1",
    "RESULT": "> 8.35"
  }
]

The reported numbers originate from ChEMBL document CHEMBL5365465.
